# System: wheat (winter wheat)
# Assay details: Test C pre-/postemergence herbicide test
# Format: in vivo, Triticum aestivum
# Test context: Postemergence, 125 g ai/ha; scale 0 to 100 (0 no effect, 100 complete control)
Entries and their Plant response rating, Wheat values follow.

{"Compound": "O=C1NCC(c2cccc(Br)c2)C1C(=O)Nc1cccc(F)c1F (stereo not drawn) [Compound 309]", "Plant response rating, Wheat": 0}
{"Compound": "Cc1cccc(NC(=O)C2C(=O)NCC2c2cccc(C(F)(F)F)c2)c1 (stereo not drawn) [Compound 317]", "Plant response rating, Wheat": 0}
{"Compound": "O=C1NCC(c2cccc(Cl)c2)C1C(=O)Nc1cccc(F)c1F (racemic) [Compound 275]", "Plant response rating, Wheat": 0}

---

# System: oilseed rape
# Assay details: Test C pre-/postemergence herbicide test
# Assay type: in vivo, Brassica napus
# Test context: Preemergence, 125 g ai/ha; scale 0 to 100 (0 no effect, 100 complete control)
Threshold check on Plant response rating, Oilseed Rape: at or above 30 gives Met, strictly below gives Not met.

{"Molecule": "O=C1NCC(c2cccc(OC(F)F)c2)C1C(=O)Nc1ccccc1F (stereo not drawn)", "Class assignment": "Not met"}
{"Molecule": "CN1CC(c2ccc(C(F)(F)F)cc2)C(C(=O)Nc2ccccc2F)C1=O (stereo not drawn)", "Class assignment": "Met"}
{"Molecule": "O=C1NCC(c2ccc(F)c(C(F)(F)F)c2)C1C(=O)Nc1ccccc1C(F)(F)F (racemic)", "Class assignment": "Not met"}
{"Molecule": "O=C1NCC(c2ccc(F)cc2)C1C(=O)Nc1cccc(F)c1F (racemic)", "Class assignment": "Met"}

---

# System: corn
# Assay details: Test A pre-/postemergence herbicide test
# Format: in vivo, Zea mays
# Test context: Postemergence, 125 g ai/ha; 0 to 100 scale, 0 is no effect, 100 is complete control

{"Compound": "CCc1cccc(C2CNC(=O)C2C(=O)Nc2cccc(F)c2F)c1 (racemic)", "Plant response rating, Corn": 20}
{"Compound": "O=C1NCC(c2ccc(C(F)(F)F)cc2)C1C(=O)Nc1ccc(F)c(F)c1F (centres unmarked)", "Plant response rating, Corn": 80}
{"Compound": "CC(C)(C)c1cccc(C2CNC(=O)C2C(=O)Nc2ccccc2C(F)(F)F)c1 (racemic)", "Plant response rating, Corn": 0}
{"Compound": "COc1ccc(C2CNC(=O)C2C(=O)Nc2ccccc2F)cc1F (racemic)", "Plant response rating, Corn": 0}
{"Compound": "O=C1NCC(c2ccc(C(F)(F)F)c(Cl)c2)C1C(=O)Nc1cccc(F)c1F (racemic)", "Plant response rating, Corn": 0}
{"Compound": "O=C1NCC(c2ccc(Cl)c(C(F)(F)F)c2)C1C(=O)Nc1cccc(F)c1F (racemic)", "Plant response rating, Corn": 0}
{"Compound": "O=C1NCC(c2ccc(C(F)(F)F)cc2F)C1C(=O)Nc1ccccc1F (racemic)", "Plant response rating, Corn": 0}
{"Compound": "O=C1NCC(c2ccc(OC(F)F)cc2)C1C(=O)Nc1ccccc1Br (centres unmarked)", "Plant response rating, Corn": 0}

---

# Test system: pigweed
# Assay details: Test C pre-/postemergence herbicide test
# Format: in vivo, Amaranthus retroflexus
# Test context: Postemergence, 31 g ai/ha; scale 0 to 100 (0 no effect, 100 complete control)

{"Compound": "O=C1NCC(c2ccc(F)cc2)C1C(=O)Nc1cccc(F)c1F (racemic)", "Plant response rating, Pigweed": 10}
{"Compound": "O=C1NCC(c2cccc(Cl)c2)C1C(=O)Nc1cccc(F)c1F (racemic)", "Plant response rating, Pigweed": 5}
{"Compound": "O=C1NCC(c2cccc(OC(F)F)c2)C1C(=O)Nc1cccc(F)c1F (stereo not shown)", "Plant response rating, Pigweed": 0}
{"Compound": "CN1CC(c2ccc(F)cc2)C(C(=O)Nc2cccc(F)c2F)C1=O (stereo not shown)", "Plant response rating, Pigweed": 10}

---

Entries and their Plant response rating, Wheat values follow.
# Tested on: wheat
# Assay details: Test A pre-/postemergence herbicide test
# Format: in vivo, Triticum aestivum
# Test context: preemergence, 500 g ai/ha; 0 to 100 scale

{"Compound": "COc1ncccc1NC(=O)C1C(=O)NCC1c1ccc(F)c(F)c1 (stereo not drawn)", "Plant response rating, Wheat": 0}
{"Compound": "O=C1NCC(c2ccc(F)c(F)c2)C1C(=O)Nc1ccc[nH]c1=O (racemic)", "Plant response rating, Wheat": 0}
{"Compound": "O=C1NCC(c2cccc(Br)c2)C1C(=O)Nc1cccc(F)c1F (stereo not drawn)", "Plant response rating, Wheat": 0}
{"Compound": "O=C1NCC(c2ccc(F)c(F)c2)C1C(=O)Nc1cccc(F)c1 (racemic)", "Plant response rating, Wheat": 20}
{"Compound": "N#Cc1ccccc1NC(=O)C1C(=O)NCC1c1ccccc1 (racemic)", "Plant response rating, Wheat": 0}
{"Compound": "O=C1NCC(c2ccc(Cl)c(F)c2)C1C(=O)Nc1ccccc1F (stereo not drawn)", "Plant response rating, Wheat": 20}
{"Compound": "O=C1NCC(c2ccc(F)c(F)c2)C1C(=O)Nc1cccc2c1OC(F)(F)O2 (stereo not drawn)", "Plant response rating, Wheat": 0}
{"Compound": "O=C1NCC(c2ccccc2)C1C(=O)Nc1ccccc1C(F)(F)F (racemic)", "Plant response rating, Wheat": 0}
{"Compound": "O=C1NCC(c2ccccc2)C1C(=O)Nc1cccc(F)c1F (stereo not drawn)", "Plant response rating, Wheat": 0}

---

# Test system: velvetleaf
# Assay details: Test C pre-/postemergence herbicide test
# Type: in vivo, Abutilon theophrasti
# Test context: Preemergence, 250 g ai/ha
Entries and their Plant response rating (scale of 0 to 100), Velvetleaf values follow.
Parameter: Plant response rating (scale of 0 to 100), Velvetleaf

{"Compound": "O=C1NCC(c2ccccc2)C1C(=O)Nc1ccccc1F (racemic) [Compound 81]", "Measured target": "velvetleaf", "Reading": 0}
{"Compound": "O=C1NCC(c2cccc(C(F)F)c2)C1C(=O)Nc1cccc(F)c1F (racemic) [Compound 211]", "Measured target": "velvetleaf", "Reading": 35}
{"Compound": "O=C1NCC(c2ccc(C(F)(F)F)cc2)C1C(=O)Nc1ccccc1Cl (stereo not shown) [Compound 233]", "Measured target": "velvetleaf", "Reading": 45}
{"Compound": "O=C1NCC(c2ccc(F)c(C(F)(F)F)c2)C1C(=O)Nc1ccccc1F (racemic) [Compound 76]", "Measured target": "velvetleaf", "Reading": 35}

---

# System: giant foxtail
# Assay details: Test A pre-/postemergence herbicide test
# Assay type: in vivo, Setaria faberii
# Test context: preemergence, 500 g ai/ha; 0 to 100 scale
Entries and their Plant response rating, Foxtail, Giant values follow.
Parameter: Plant response rating, Foxtail, Giant

{"Compound": "O=C1NCC(c2ccc(OC(F)(F)C(F)F)cc2)C1C(=O)Nc1cccc(F)c1F (racemic)", "Parameter": "Plant response rating, Foxtail, Giant", "Reading": 30}
{"Compound": "CCc1cccc(C2CNC(=O)C2C(=O)Nc2cccc(F)c2F)c1 (racemic)", "Parameter": "Plant response rating, Foxtail, Giant", "Reading": 90}
{"Compound": "Cc1ccc(C2CNC(=O)C2C(=O)Nc2ccccc2F)cc1 (racemic)", "Parameter": "Plant response rating, Foxtail, Giant", "Reading": 90}
{"Compound": "CC1NC(=O)C(C(=O)Nc2ccccc2C(F)(F)F)C1c1ccc(F)c(F)c1 (mixture of isomers)", "Parameter": "Plant response rating, Foxtail, Giant", "Reading": 90}

---

# Tested on: galium
# Assay details: Test C pre-/postemergence herbicide test
# Assay type: in vivo, Galium aparine
# Test context: Preemergence, 125 g ai/ha; scale 0 to 100 (0 no effect, 100 complete control)
Parameter: Plant response rating, Galium

{"Molecule": "CN1CC(c2ccc(F)c(F)c2)C(C(=O)Nc2ccccc2F)C1=O (stereo not drawn) [Compound 302]", "Measured target": "galium", "Parameter": "Plant response rating, Galium", "Reading": 85}
{"Molecule": "O=C1NCC(c2ccc(F)c(Cl)c2)C1C(=O)Nc1cccc(F)c1F (stereo not drawn) [Compound 59]", "Measured target": "galium", "Parameter": "Plant response rating, Galium", "Reading": 30}
{"Molecule": "O=C1NCC(c2ccc(F)cc2)C1C(=O)Nc1cccc(F)c1F (racemic) [Compound 119]", "Measured target": "galium", "Parameter": "Plant response rating, Galium", "Reading": 85}
{"Molecule": "O=C1NCC(c2cccc(C(F)(F)F)c2)C1C(=O)Nc1ccccc1Cl (racemic) [Compound 189]", "Measured target": "galium", "Parameter": "Plant response rating, Galium", "Reading": 80}
{"Molecule": "O=C1NCC(c2cccc(C(F)(F)F)c2)C1C(=O)Nc1cccc(F)c1F (stereo not drawn) [Compound 241]", "Measured target": "galium", "Parameter": "Plant response rating, Galium", "Reading": 85}
{"Molecule": "O=C1NCC(c2ccc(Cl)c(F)c2)C1C(=O)Nc1ccccc1F (stereo not drawn) [Compound 53]", "Measured target": "galium", "Parameter": "Plant response rating, Galium", "Reading": 0}
{"Molecule": "O=C1NCC(c2ccc(C(F)(F)F)c(F)c2)C1C(=O)Nc1ccccc1F (racemic) [Compound 246]", "Measured target": "galium", "Parameter": "Plant response rating, Galium", "Reading": 90}
{"Molecule": "O=C1NCC(c2cc(F)cc(F)c2)C1C(=O)Nc1cccc(F)c1F (racemic) [Compound 279]", "Measured target": "galium", "Parameter": "Plant response rating, Galium", "Reading": 85}
{"Molecule": "CN1CC(c2ccc(C(F)(F)F)cc2)C(C(=O)Nc2ccccc2F)C1=O (stereo not drawn) [Compound 304]", "Measured target": "galium", "Parameter": "Plant response rating, Galium", "Reading": 85}
